- MEASURED ON: human vitronectin receptor αvβ3 (Homo sapiens, UniProt P05106+P06756)
- Sequence (P06756 31-889 limits assumed): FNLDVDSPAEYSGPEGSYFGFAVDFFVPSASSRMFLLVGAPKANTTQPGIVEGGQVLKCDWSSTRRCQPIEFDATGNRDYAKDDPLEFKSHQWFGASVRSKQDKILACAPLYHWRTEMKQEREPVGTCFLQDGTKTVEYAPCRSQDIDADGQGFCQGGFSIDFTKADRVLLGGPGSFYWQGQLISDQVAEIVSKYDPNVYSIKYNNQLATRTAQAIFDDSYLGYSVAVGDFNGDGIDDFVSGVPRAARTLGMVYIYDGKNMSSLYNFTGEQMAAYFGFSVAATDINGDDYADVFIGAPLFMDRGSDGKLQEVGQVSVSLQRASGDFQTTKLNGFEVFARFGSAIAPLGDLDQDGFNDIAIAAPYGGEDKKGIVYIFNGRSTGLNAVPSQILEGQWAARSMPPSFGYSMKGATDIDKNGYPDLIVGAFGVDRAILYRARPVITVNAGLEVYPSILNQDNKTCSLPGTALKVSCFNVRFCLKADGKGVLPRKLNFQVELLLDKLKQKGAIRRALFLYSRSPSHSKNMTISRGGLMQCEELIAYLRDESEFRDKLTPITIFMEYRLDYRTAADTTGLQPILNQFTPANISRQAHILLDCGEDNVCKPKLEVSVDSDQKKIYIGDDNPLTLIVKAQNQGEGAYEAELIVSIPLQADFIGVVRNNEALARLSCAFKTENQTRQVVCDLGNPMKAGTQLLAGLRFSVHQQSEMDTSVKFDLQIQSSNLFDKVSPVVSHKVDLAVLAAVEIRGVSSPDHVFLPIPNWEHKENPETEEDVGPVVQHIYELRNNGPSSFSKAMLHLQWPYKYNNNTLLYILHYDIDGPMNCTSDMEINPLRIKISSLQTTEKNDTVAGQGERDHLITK
- Sequence (P06756 891-1048 limits assumed): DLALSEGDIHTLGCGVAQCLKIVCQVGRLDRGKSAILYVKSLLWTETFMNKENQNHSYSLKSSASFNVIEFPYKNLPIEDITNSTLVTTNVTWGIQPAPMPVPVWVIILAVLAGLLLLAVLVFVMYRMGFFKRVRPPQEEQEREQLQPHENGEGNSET
- Sequence (P05106 27-788): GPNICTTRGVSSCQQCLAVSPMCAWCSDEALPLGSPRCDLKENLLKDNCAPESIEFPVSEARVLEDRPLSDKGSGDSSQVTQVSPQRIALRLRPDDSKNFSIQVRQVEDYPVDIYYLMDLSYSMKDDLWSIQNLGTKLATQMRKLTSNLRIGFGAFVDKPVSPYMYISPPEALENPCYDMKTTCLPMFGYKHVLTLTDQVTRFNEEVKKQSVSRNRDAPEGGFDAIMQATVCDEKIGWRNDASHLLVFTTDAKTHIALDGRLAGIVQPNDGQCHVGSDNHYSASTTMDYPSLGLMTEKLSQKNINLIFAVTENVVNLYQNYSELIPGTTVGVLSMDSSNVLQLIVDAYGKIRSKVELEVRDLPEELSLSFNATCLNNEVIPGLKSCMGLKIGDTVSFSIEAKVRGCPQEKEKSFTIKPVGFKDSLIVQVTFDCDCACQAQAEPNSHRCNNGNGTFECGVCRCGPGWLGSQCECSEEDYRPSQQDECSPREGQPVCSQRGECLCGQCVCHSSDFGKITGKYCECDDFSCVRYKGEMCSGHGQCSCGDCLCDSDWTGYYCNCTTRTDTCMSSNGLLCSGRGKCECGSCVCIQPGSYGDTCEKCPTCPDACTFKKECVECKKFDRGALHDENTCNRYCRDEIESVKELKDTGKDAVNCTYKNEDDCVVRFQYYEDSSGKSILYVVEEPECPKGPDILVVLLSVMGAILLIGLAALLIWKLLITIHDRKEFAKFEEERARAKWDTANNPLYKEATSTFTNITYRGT
- ASSAY PROCEDURE: Kistrin binding assay (K/VnR, αvβ3 ELISA test)
- ASSAY CONDITIONS: inhibition of binding of kistrin to human vitronectin receptor
- Text: The inhibition of the binding of kistrin to human vitronectin receptor (VnR) described below is a test method by which the antagonistic action of the compounds of the invention on the vitronectin receptor αvβ3 can be determined (αvβ3 ELISA Test; the test method is abbreviated as “K/VnR” in the listing of the test results). […] The ability of substances to inhibit the binding of kistrin to the vitronectin receptor can be determined using an ELISA test. […]
pIC50: −log10 of the molar value.
Attribute: pIC50
QUANTITY KIND: pIC50

COMPOUND: CC(C)(C)c1ccc(S(=O)(=O)N[C@@H](Cn2cnc3c(N4CCC(C(=O)NC5=NCCCN5)CC4)ncnc32)C(=O)O)cc1
REPORTED MEASUREMENT: 8.35
//
COMPOUND: O=C(NC1=NCCCN1)C1CCN(c2ncnc3c2ncn3C[C@H](NS(=O)(=O)C(F)(F)F)C(=O)O)CC1
REPORTED MEASUREMENT: 7.07
//
COMPOUND: O=C(NC1=NCCCN1)C1CCN(c2ncnc3c2ncn3C[C@H](NS(=O)(=O)Cc2ccccc2)C(=O)O)CC1
REPORTED MEASUREMENT: 7.64
//
COMPOUND: O=C(NC1=NCCCN1)C1CCN(c2ncnc3c2ncn3C[C@H](NS(=O)(=O)c2ccc(C(F)(F)F)cc2)C(=O)O)CC1
REPORTED MEASUREMENT: 8.49
//
COMPOUND: O=C(NC1=NCCCN1)C1CCN(c2ncnc3c2ncn3C[C@H](NS(=O)(=O)c2ccc3ccccc3c2)C(=O)O)CC1
REPORTED MEASUREMENT: 8.60
//
COMPOUND: O=C(NC1=NCCCN1)C1CCN(c2ncnc3c2ncn3C[C@H](NS(=O)(=O)CC(F)(F)F)C(=O)O)CC1
REPORTED MEASUREMENT: 7.42
//
COMPOUND: CCCS(=O)(=O)N[C@@H](Cn1cnc2c(N3CCC(C(=O)NC4=NCCCN4)CC3)ncnc21)C(=O)O
REPORTED MEASUREMENT: 7.60
//
COMPOUND: Cc1ccc(S(=O)(=O)N[C@@H](Cn2cnc3c(N4CCC(C(=O)NC5=NCCCN5)CC4)ncnc32)C(=O)O)cc1
REPORTED MEASUREMENT: 8.19
//
COMPOUND: Cc1cc(C)c(S(=O)(=O)N[C@@H](Cn2cnc3c(N4CCC(C(=O)NC5=NCCCN5)CC4)ncnc32)C(=O)O)c(C)c1
REPORTED MEASUREMENT: 8.30
//
COMPOUND: O=C(NC1=NCCCN1)C1CCN(c2ncnc3c2ncn3C[C@H](NS(=O)(=O)c2cccc3ccccc23)C(=O)O)CC1
REPORTED MEASUREMENT: 8.72
//
COMPOUND: CC(C)CS(=O)(=O)N[C@@H](Cn1cnc2c(N3CCC(C(=O)NC4=NCCCN4)CC3)ncnc21)C(=O)O
REPORTED MEASUREMENT: 8.38
//
COMPOUND: O=C(NC1=NCCCN1)C1CCN(c2ncnc3c2ncn3C[C@H](NS(=O)(=O)c2cccc(C(F)(F)F)c2)C(=O)O)CC1
REPORTED MEASUREMENT: 8.47
